- measurementTarget: MERTK (Homo sapiens, UniProt Q12866)
- Sequence (Q12866 21-999): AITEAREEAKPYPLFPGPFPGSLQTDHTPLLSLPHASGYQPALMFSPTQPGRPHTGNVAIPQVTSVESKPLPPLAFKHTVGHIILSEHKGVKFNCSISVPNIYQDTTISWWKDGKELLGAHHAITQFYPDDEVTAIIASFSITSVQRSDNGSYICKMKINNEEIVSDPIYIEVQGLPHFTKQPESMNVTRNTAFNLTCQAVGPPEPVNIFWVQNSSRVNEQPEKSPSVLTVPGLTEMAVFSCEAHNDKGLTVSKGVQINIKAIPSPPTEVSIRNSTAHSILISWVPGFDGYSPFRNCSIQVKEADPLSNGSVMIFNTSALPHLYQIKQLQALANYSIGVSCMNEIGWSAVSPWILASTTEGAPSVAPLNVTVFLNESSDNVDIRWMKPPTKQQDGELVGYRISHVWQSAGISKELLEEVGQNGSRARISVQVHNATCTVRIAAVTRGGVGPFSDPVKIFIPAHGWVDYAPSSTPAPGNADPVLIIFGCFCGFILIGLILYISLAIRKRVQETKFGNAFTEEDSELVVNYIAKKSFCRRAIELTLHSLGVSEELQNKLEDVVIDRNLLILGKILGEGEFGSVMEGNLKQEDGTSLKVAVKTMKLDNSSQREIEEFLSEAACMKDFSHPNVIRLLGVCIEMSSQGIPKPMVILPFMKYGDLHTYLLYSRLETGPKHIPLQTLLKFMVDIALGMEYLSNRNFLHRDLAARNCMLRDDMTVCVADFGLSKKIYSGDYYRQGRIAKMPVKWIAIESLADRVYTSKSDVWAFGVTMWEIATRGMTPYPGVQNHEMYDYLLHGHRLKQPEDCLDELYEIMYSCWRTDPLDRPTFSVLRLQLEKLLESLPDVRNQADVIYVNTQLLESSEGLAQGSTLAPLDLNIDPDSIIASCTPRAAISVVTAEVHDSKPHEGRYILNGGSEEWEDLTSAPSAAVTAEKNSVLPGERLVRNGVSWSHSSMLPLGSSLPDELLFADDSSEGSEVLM
- measurementProtocol: TR-FRET kinase activity assay, MERTK
- Format: biochemical
- details: ratio calculated as FLT3 IC50/Mer IC50
quantity: Mer/Flt3 ratio (FLT3 IC50/Mer IC50)

• CCCCNc1ncc2c(OCCOC)ncc([C@H]3CC[C@H](O)CC3)c2n1 = NS (a ratio of ≤2.0)
• NC(=O)c1ccc(Nc2ncc3c(OC4CCOCC4)ncc([C@H]4CC[C@H](O)CC4)c3n2)cc1 = NS (a ratio of ≤2.0)

====

- measurementTarget: MERTK (Homo sapiens, UniProt Q12866)
- Sequence (Q12866 21-999): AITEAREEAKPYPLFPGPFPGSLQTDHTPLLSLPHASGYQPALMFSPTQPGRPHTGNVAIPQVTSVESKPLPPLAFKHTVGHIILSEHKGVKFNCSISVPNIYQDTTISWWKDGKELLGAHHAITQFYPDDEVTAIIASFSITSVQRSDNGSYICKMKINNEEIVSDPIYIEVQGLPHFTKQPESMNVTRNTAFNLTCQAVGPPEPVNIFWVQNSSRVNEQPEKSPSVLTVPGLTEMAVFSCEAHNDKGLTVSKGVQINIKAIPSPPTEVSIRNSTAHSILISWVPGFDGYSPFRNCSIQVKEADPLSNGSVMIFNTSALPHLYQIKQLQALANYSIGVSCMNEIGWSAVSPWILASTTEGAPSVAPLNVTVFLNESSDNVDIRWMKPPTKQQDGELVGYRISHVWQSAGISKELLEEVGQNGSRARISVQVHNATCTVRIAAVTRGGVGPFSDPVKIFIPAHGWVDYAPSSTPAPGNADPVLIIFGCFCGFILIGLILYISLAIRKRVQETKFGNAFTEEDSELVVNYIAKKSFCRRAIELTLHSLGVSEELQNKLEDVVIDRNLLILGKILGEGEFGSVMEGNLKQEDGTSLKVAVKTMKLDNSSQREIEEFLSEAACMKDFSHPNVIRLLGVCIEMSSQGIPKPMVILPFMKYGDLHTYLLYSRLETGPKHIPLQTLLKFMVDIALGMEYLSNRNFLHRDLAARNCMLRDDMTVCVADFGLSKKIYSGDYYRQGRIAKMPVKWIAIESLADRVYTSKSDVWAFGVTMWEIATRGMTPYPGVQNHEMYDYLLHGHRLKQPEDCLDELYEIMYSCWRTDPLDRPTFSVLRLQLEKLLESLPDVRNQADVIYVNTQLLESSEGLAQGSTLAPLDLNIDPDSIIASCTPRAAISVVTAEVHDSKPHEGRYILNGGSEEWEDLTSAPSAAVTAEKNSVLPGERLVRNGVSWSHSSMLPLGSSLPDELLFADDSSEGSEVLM
- measurementProtocol: TR-FRET kinase activity assay, MERTK
- Assay type: biochemical
- details: ratio calculated as FLT3 IC50/Mer IC50
quantity: Mer/Flt3 ratio (FLT3 IC50/Mer IC50)

* CCOc1ncc([C@H]2CC[C@H](O)CC2)c2nc(N[C@@H](C)CC(F)(F)F)ncc12 [Compound 359] | +++ (a ratio of >100)
* COC[C@H](C)Nc1ncc2c(OC3C[C@H](C)N(C)[C@@H](C)C3)ncc([C@H]3CC[C@H](O)CC3)c2n1 (stereo partly shown) [Compound 387] | +++ (a ratio of >100)

====

- measurementTarget: TYRO3 (Homo sapiens, UniProt Q06418)
- Sequence (Q06418 41-890): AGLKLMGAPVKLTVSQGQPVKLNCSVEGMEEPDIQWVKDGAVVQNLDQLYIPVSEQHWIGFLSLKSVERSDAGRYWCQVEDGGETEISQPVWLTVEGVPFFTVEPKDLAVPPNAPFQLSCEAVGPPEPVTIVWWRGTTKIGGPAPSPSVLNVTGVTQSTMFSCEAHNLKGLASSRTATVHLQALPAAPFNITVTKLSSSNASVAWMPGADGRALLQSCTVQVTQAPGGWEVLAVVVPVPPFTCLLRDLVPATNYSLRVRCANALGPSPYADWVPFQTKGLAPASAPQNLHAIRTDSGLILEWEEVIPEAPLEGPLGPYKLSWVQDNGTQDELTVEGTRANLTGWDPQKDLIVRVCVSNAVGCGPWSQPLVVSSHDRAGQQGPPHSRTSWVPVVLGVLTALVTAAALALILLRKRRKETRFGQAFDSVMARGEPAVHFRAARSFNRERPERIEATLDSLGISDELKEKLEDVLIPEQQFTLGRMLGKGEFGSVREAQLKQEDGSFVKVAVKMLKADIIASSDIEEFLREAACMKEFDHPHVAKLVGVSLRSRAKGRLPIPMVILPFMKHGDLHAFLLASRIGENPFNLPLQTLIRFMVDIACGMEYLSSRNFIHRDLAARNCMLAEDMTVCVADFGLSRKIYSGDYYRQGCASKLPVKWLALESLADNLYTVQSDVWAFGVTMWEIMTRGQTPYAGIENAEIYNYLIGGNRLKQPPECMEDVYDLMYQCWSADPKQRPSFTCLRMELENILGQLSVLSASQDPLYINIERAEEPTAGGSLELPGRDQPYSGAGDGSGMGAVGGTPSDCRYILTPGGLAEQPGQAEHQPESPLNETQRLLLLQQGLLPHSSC
pIC50: −log10 of the molar value. Structures can show the parent of a compound that is named as a salt.
quantity: pIC50

• O=C(O)[C@H]1CC[C@@H](Nc2ncc3c(OC4CCOCC4)ncc([C@H]4CC[C@H](O)CC4)c3n2)CC1 [Compound 353] = 5.00 to 6.00
• CCCC(C)Nc1ncc2c(=O)n(C3CCN(C(C)=O)CC3)cc([C@H]3CC[C@H](O)CC3)c2n1 (some centres unmarked) [Compound 128, hydrochloride] = ≥ 7.00
• CCCC(C)Nc1ncc2c(OC3CCNCC3)ncc([C@H]3CC[C@H](O)CC3)c2n1 (some centres unmarked) [Compound 166] = ≥ 7.00
• COC[C@H](C)Nc1ncc2c(OC3CCOCC3)ncc(C3CCCCN3C)c2n1 (some centres unmarked) [Compound 350] = 5.00 to 6.00

Per the record, CCCC(C)Nc1ncc2c(OCCN(C)C)ncc([C@H]3CC[C@H](O)CC3)c2n1 (some centres unmarked) [Compound 191] has pIC50 of < 5.00

Per the record, CN1C[C@@H](Nc2ncc3c(OC4CCOCC4)ncc([C@H]4CC[C@H](O)CC4)c3n2)CC1=O [Compound 324] has pIC50 of 5.00 to 6.00

Per the record, CCCCNc1ncc2c(=O)n(-c3ccc(CN4CCOCC4)cc3)cc([C@H]3CC[C@H](O)CC3)c2n1 [Compound 101] has pIC50 of 6.00 to 7.00

Per the record, C[C@@H](CC(F)(F)F)Nc1ncc2c(O[C@@H]3C[C@H]4CC[C@@H](C3)N4C[C@@H]3CCOC3)ncc([C@H]3CC[C@H](O)CC3)c2n1 [Compound 416] has pIC50 of ≥ 7.00

Per the record, CNC(=O)c1ccc(Nc2ncc3c(OC4CCOCC4)ncc([C@H]4CC[C@H](O)CC4)c3n2)cc1 [Compound 398] has pIC50 of ≥ 7.00

Per the record, CC(C)Nc1ncc2c(OC3CCOCC3)ncc(-c3cccc(S(=O)(=O)C(C)C)c3)c2n1 [Compound 318] has pIC50 of 6.00 to 7.00

Per the record, CC[C@H](C)Nc1ncc2c(=O)n(-c3ccc(N)cc3)cc([C@H]3CC[C@H](O)CC3)c2n1 [Compound 271] has pIC50 of 6.00 to 7.00
